Target: T1, rat α-CGRP (1-37) (rat, C-terminal amide; N-terminal biotin when captured on the SA chip)
T1 construct: also called rat α (1-37); α-rat
T1 peptide: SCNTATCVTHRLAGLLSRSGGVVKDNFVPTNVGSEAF
Assay: Biacore, 37°C, Fab over CGRP on SA chip
Output YES for records whose Kd is lower than 1 µM, NO for records at or above 1 µM.

Look over these answered cases.
binder | qualitative label
G1 variant M50 Fab (Fab, V domains shown, Fab; constant domains as m1) VH: EVQLVESGGGLVQPGGSLRLSCAASGFTFSNYWISWVRQAPGKGLEWVAEIRSKSDRSATHYAEAVKGRFTISRDNAKNSLYLQMNSLRAEDTAVYYCTVYFDYGLAIQNYWGQGTLVTVSS VL: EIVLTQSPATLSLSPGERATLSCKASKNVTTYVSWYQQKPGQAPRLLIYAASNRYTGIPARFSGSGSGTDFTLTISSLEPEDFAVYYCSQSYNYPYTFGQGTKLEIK | YES
G1 variant M79 Fab (Fab, V domains shown, Fab; constant domains as m1) VH: EVQLVESGGGLVQPGGSLRLSCAASGFTFSNYWISWVRQAPGKGLEWVAEIRSKSDPSATHYAEAVKGRFTISRDNAKNSLYLQMNSLRAEDTAVYYCTVYFDYGLAIQNYWGQGTLVTVSS VL: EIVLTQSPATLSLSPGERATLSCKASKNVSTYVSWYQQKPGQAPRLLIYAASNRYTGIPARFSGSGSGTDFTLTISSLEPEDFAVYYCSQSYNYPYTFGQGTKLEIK | NO
G1 variant M80 Fab (Fab, V domains shown, Fab; constant domains as m1; printed L561 read as L56I) VH: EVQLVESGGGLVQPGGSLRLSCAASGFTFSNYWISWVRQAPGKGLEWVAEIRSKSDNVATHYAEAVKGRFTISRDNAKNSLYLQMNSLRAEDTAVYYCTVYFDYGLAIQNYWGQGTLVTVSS VL: EIVLTQSPATLSLSPGERATLSCKASKNVSTYVSWYQQKPGQAPRLLIYGASNRYIGIPARFSGSGSGTDFTLTISSLEPEDFAVYYCSQSYNYPYTFGQGTKLEIK | NO

# next binder below
Req: Would you kindly verify if Kd of G1 variant M57 Fab (Fab, V domains shown, Fab; constant domains as m1) VH: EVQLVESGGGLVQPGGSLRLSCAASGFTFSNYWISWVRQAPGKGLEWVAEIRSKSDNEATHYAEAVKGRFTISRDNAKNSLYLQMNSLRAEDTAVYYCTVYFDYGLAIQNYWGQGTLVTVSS VL: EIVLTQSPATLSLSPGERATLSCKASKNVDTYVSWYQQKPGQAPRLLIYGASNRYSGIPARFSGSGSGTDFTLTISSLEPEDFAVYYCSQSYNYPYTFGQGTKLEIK is strictly less than 1 µM?
Resp: NO

Origin of values: patent US20190071490A1
